# Lookup of reported TGI keyed by entry
- System: 786-0 renal
- test.summary: NCI tumour cell line growth inhibition, 48 h
assay.readout: TGI

* COc1cc(C2SCC(=O)N2c2ccc(Cl)c(Cl)c2)cc(OC)c1OC (stereo not drawn) | > 100 µM
* O=C(NCCCCN=c1cccccc1NCCCCNC(=O)OCc1ccccc1)OCc1ccccc1 | 31.8 µM
* CC1(C)OC2C(O)CN3CCS[C@H]3C2O1 (stereo partly drawn) | > 100 µM
* NC12Oc3cc(O)cc(O)c3C1(c1ccc(Cl)cc1)c1c(O)cc(O)cc1O2 (stereo not drawn) | > 100 µM
* O=C1/C(=C/c2ccccc2)NC(=S)N1CN1CCOCC1 | > 100 µM
* CC12CC(C#N)(C#N)C(C#N)(CO1)C(=N)O2 (stereo not drawn) | > 100 µM
* CCC1C2C=CC(CC2)N1S(=O)(=O)c1ccc(C)cc1 (stereo not drawn) | > 100 µM
* O=C(NCCCN(CCCCN(CCCNC(=O)C(F)(F)F)CCCc1ccccc1)CCCc1ccccc1)C(F)(F)F | 2.86 µM
* Cc1[nH]c2ccccc2c1-c1cc(-c2cc(-c3c(C)[nH]c4ccccc34)on2)no1 | > 100 µM
* CC(=O)OC12c3ccccc3-c3ccccc3C1C1C(=O)N(C)C(=O)C12Cl (stereo not drawn) | > 10 µM
* CC1=CC(=O)[C@@H](O)[C@]2(C)[C@H]3[C@@]4(O)OC[C@]35[C@H]([C@@H](C)[C@H]4O)[C@@H](O)C(=O)O[C@@H]5C[C@@H]12 | 2.13 µM
* Cc1ccc(/C=C/c2c(C(=O)/C=C/c3ccc(C(F)(F)F)cc3)c(C)nc3ccccc23)cc1 | 3.18 µM
* CCCCn1c(C)c2c(c1C)C(=O)N(CC(O)CN1CCc3ccccc3C1)C2=O (stereo not drawn) | > 100 µM
* O=c1cc2oc3cc(O)c(O)cc3c(-c3ccccc3O)c-2cc1O | 37.2 µM
* COC(=O)C1(OC(=O)Sc2ccccc2)CCN(C)CC1 | 50.3 µM
* Cn1cnc([N+](=O)[O-])c1S(=O)(=O)Oc1ccccc1 | 55.6 µM
* CN1C(=O)C(CC=O)(C(C)(C)C)c2ccccc21 (stereo not drawn) | > 100 µM
* CC(CC(=O)O)C(C(=O)O)C(=O)O (stereo not drawn) | > 100 µM
* O=C(NC(CO)Cc1ccc(Oc2cc(CC(CO)NC(=O)OCc3ccccc3)ccc2OC(=O)OCc2ccccc2)cc1)OCc1ccccc1 (stereo not drawn) | > 100 µM
* Nc1nc(N)c(N=Nc2ccc([As](=O)(O)O)cc2)c(=O)[nH]1 | > 100 µM
* Cc1c(O)c(C)c2c(C)cn(C(=O)C(C)(C)C)c2c1C | 36.3 µM
* CCOC(=O)c1ccc(NC(=O)O/N=C(/Cl)CCl)cc1 | > 100 µM
* N#C/C(N)=C(\C#N)NC=NCc1ccccc1 | > 100 µM
* CCOC(=O)c1cc(C2(O)CCN(CC(C)CC)C2=O)c(-c2cc(C)no2)[nH]1 (stereo not drawn) | > 100 µM
* CCOC(=O)C(=Cc1cccc(Cl)c1)C(=O)OCC | 4.26 µM
* CC(C)(C)c1cc(C(=O)/C=C/C=C/c2ccccc2)cc(C(C)(C)C)c1O | 36.1 µM
* O=c1[nH]cc(COCCO)c(=O)[nH]1 | > 100 µM
* O=c1cc(-c2ccccc2)[nH]c2c(S)cccc12 | > 100 µM
* C[C@@H]1CCC2[C@@H](C)[C@@H](OCCO[C@H]3OC4O[C@@]5(C)CCC6[C@H](C)CCC([C@H]3C)[C@@]46OO5)OC3O[C@@]4(C)CCC1[C@]32OO4 (stereo partly drawn) | > 100 µM
* COc1ccc(-c2cc(-c3ccccc3)c(C#N)c(=O)n2C2OC(CO)C(O)C(O)C2O)cc1 (stereo not drawn) | > 100 µM
* CCCCCCNC(=O)c1nc(-c2ccccc2)oc1Cc1ccc(OP(=O)(O)O)cc1 | 35.4 µM
* O=C(NC(=O)c1cn(CCNCCO)c(=O)[nH]c1=O)OCc1ccccc1 | > 100 µM
* COc1ccc2[nH]cc(-c3nc(-c4c[nH]c5ncccc45)cs3)c2c1 | > 100 µM
